Just for reference, patent US12404239B2 is where these values come from.

Measured Percent BCL6 remaining at maximal degradation (Ycon) by item
assayed-system: BCL6 (Homo sapiens, UniProt P41182)
Construct: HiBiT-tag knocked into endogenous BCL6 locus using CRISPR; endogenous in cells; host or cells: DHL-4_BCL6_HiBiT cells (CRISPR knock-in)
assay-overview: BCL6_HiBiT degradation assay (2 h)
Format: cell-based
assay-conditions: DHL-4_BCL6_HiBiT cells, read-out: YCon (% remaining maximal effect)
measure: Percent BCL6 remaining at maximal degradation (Ycon)

| compound | assayed-system | val |
| --- | --- | --- |
| C[C@@H]1C[C@@H](N(C)c2ccc3c(C4CCC(=O)NC4=O)nn(C)c3c2)CCN1c1ncc(Cl)c(Nc2ccc3c(c2)CC(=O)N3C)n1 (stereo partly drawn) [Example 25] | BCL6 (Homo sapiens, UniProt P41182) | > 60% |
| CN1C(=O)Cc2cc(Nc3nc(N4CCC(Nc5ccc6c(N7CCC(=O)NC7=O)nn(C)c6c5)C(F)(F)C4)ncc3Cl)ccc21 (stereo not drawn) [Example 65] | BCL6 (Homo sapiens, UniProt P41182) | > 60% |
| C[C@@H]1CN(c2ncc(Cl)c(Nc3ccc4c(c3)CC(=O)N4C)n2)CC[C@H]1Nc1ccc2c([C@H]3CCC(=O)NC3=O)nn(C)c2c1 (single isomer, unassigned) [Example 71] | BCL6 (Homo sapiens, UniProt P41182) | < 20% |
| CCN1C(=O)Cc2cc(Nc3nc(N4CCC(Nc5ccc6c([C@@H]7CCC(=O)NC7=O)nn(C)c6c5)CC4)ncc3Cl)ccc21 (single isomer, unassigned) [Example 91] | BCL6 (Homo sapiens, UniProt P41182) | > 60% |
| C[C@@H]1CN(c2ncc(Cl)c(Nc3ccc4c(c3)CC(=O)N4C)n2)C[C@@H](C)N1c1ccc2c(C3CCC(=O)NC3=O)nn(C)c2c1 (stereo partly drawn) [Example 78] | BCL6 (Homo sapiens, UniProt P41182) | 20 to 60% |
| C[C@@H]1CN(c2ncc(Cl)c(Nc3ccc4c(c3)CC(=O)N4C)n2)CC[C@H]1Nc1ccc2c(-n3cc(F)c(=O)[nH]c3=O)nn(C)c2c1 [Example 140] | BCL6 (Homo sapiens, UniProt P41182) | < 20% |
